Test name: growth rescue of sdo1-depleted yeast, primary screen, S. cerevisiae, bone marrow failure model (AID 817);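 also: z-score against mean and SD of all compound wells on the same plate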
Cond: S. cerevisiae sdo1-depleted JHY4D growth rescue, OD600 30 h; at 10 µM; stronger effect = higher value; pdr5 snq2 efflux-pump mutant strain
Screen size: about 140,000 compounds; about 300 (0.21%) were called active. What follows is part of a selection rich in actives, with near analogues and random picks from the rest.
Property: z-score

Completed entries (count: 2):
> print(dat)
                                   compound            result
1  COc1ccc(/C(C)=N/Nc2cc(C(F)(F)F)ccc2Cl)c(OC)c1  -0.18 (inactive)
2          Cc1ccn(-c2cccc(-n3ccc(C)n3)n2)n1  -0.06 (inactive)

Q) Name the recorded z-score of the compound listed here: CCc1ccc(C2N3CC4([N+](=O)[O-])CN2CC([N+](=O)[O-])(C3)C4(C)C)cc1 (stereo not given)
A) 1.48 (inactive)

Q) Name the recorded z-score of the compound listed here: O=C(COC(=O)c1cc(=O)[nH]c2ccccc12)Nc1nc(-c2cccc(Br)c2)cs1
A) -0.47 (inactive)

Q) Name the recorded z-score of the compound listed here: Cc1cc(Cl)ccc1OCCCC(=O)NCc1ccncc1
A) -0.45 (inactive)

###

Test name: growth rescue of sdo1-depleted yeast, primary screen, S. cerevisiae, bone marrow failure model (AID 817);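 also: z-score against mean and SD of all compound wells on the same plate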
Cond: S. cerevisiae sdo1-depleted JHY4D growth rescue, OD600; measured here: growth rescue at 24 h; at 10 µM; stronger effect = higher value; pdr5 snq2 efflux-pump mutant strain
In all, about 140,000 compounds went through this assay and about 300 (0.21%) were called active. This is one part of a sample in which actives are shown more often than they occur.
Property: z-score
Respond using a number only.

Completed entries (count: 3):
> print(dat)
                                   molecule  property  readout.number
1             Cc1ccc(C(=O)CNc2ccc(F)cc2)cc1   z-score           -0.09
2  O=C(NNC1=NCCC1)c1cccc(S(=O)(=O)N2CCCCC2)c1   z-score            1.17
3  COc1ccc(C(C[N+](=O)[O-])n2nc(C)cc2C)cc1 (configuration not stated)   z-score           -0.33

Switching to the query record.
Q) Name the recorded z-score of the molecule listed here: COc1cc(OC)nc(S(C)(=O)=O)n1
A) 4.26

###

Test name: growth rescue of sdo1-depleted yeast, primary screen, S. cerevisiae, bone marrow failure model (AID 817);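 also: z-score against mean and SD of all compound wells on the same plate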
Cond: S. cerevisiae sdo1-depleted JHY4D growth rescue, OD600 30 h; at 10 µM; stronger effect = higher value; pdr5 snq2 efflux-pump mutant strain
The whole screen tested about 140,000 compounds, of which about 300 (0.21%) were called active. For the sample, actives were picked, then their nearest neighbours and some compounds at random.
Measured z-score, listed per entry for reference.
Respond using a number only.

Completed entries (count: 3):
> print(dat)
                                   compound  readout.number
1   O=C(OCC(=O)c1c[nH]c2ccccc12)c1cccc(O)c1               0
2  Cc1ccc(Nc2cc(C)nc3c(C)ccc([N+](=O)[O-])c23)cc1            -2.1
3             COc1ccc2c(Cl)c(-c3nnco3)sc2c1           -1.26

Q) Name the recorded z-score of the compound listed here: O=C(CCN1C(=O)c2ccccc2C1=O)C1=NN[C@@H]2C(=O)N(c3ccc(F)cc3)C(=O)[C@H]12
A) 0.12

Q) Name the recorded z-score of the compound listed here: C=CCn1c(SCc2ccc(Cl)c(Cl)c2)nnc1C(CO)NC(=O)c1ccc(OC)cc1 (stereo unspecified)
A) 0.22

Q) Name the recorded z-score of the compound listed here: Cc1ccc(S(=O)(=O)/N=C(/Nc2ccccn2)c2ccc(Cl)cc2)cc1
A) -1.04

Q) Name the recorded z-score of the compound listed here: Cc1ccccc1NC(=S)N(CCCN1CCOCC1)Cc1cccs1
A) 0.26

Q) Name the recorded z-score of the compound listed here: C[C@@H]1NC(=O)c2cc([N+](=O)[O-])cc(F)c2NCCC[C@@H](C(N)=O)NC(=O)[C@H](CC(N)=O)NC1=O
A) 0.86

Q) Name the recorded z-score of the compound listed here: Cc1ccc(S/C(=N\S(=O)(=O)c2ccc(Cl)cc2)c2ccccc2)cc1
A) -0.79

Q) Name the recorded z-score of the compound listed here: CCCc1cc(=O)[nH]c(SCC(=O)N2CCN(S(=O)(=O)c3ccc(C)cc3C)CC2)n1
A) 0.64

Q) Name the recorded z-score of the compound listed here: CCOC(=O)CNC(=O)/C=C/c1c(Cl)cccc1Cl
A) -0.54

Q) Name the recorded z-score of the compound listed here: Cc1cccc(Nc2nc3c(S(=O)(=O)c4ccccc4)nnn3c3ccccc23)c1C
A) 2.09

Q) Name the recorded z-score of the compound listed here: Cc1cc(-c2csc(N)n2)c(C)n1-c1ccccc1
A) 0.37

Q) Name the recorded z-score of the compound listed here: CCOC(=O)c1c(/N=C/C2C(=O)CC(C)(C)CC2=O)sc(C)c1C
A) 0.94

Q) Name the recorded z-score of the compound listed here: CCCCNC(=O)CSc1nc2ccc(NC(=O)CSc3nnc(N)s3)cc2s1
A) 0.08

Data provenance: PubChem BioAssay AID817
